Details: in acetonitrile, 273.15 K
OBSERVATION_TYPE: solubility (mole fraction)
Just the number, please, no unit attached.

# input Recorded solubility (mole fraction) of CC(=O)Oc1ccc(C(c2ccc(OC(C)=O)cc2)c2ccccn2)cc1 , please.
# output 0.000983

* * *

Conditions: in DMF, 283.15 K
OBSERVATION_TYPE: solubility (mole fraction)
Respond numerically, and do not add a unit to the figure.

# input Any idea what its solubility (mole fraction) is? The compound is CC(=O)Oc1ccc(C(c2ccc(OC(C)=O)cc2)c2ccccn2)cc1
# output 0.00255

* * *

Conditions: in ethyl acetate, 288.15 K
OBSERVATION_TYPE: solubility (mole fraction)
In your answer, state the number alone without any accompanying words.

# input # get_value(readout='solubility (mole fraction)', item= CC(=O)Oc1ccc(C(c2ccc(OC(C)=O)cc2)c2ccccn2)cc1 )
# output 0.00126
